Test target: T1, TIGIT (T cell immunoreceptor with Ig and ITIM domains) (human, UniProt Q495A1 22-141, limits assumed)
T1 construct: also called hTIGIT; human TIGIT
T1 sequence (looked up): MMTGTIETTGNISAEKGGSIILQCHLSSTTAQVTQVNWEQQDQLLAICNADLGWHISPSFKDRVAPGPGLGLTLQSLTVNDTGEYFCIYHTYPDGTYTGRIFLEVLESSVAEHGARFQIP
Assay info: SPR, VHH-V5-His
Metric: koff (s⁻¹)

Some solved entries appear below for comparison.
Binder	koff / s⁻¹
TIGIT-30-43 VHH-V5-His (VHH, not shown: V5-His tag) VHH: EVQLVESGGGLVQAGGSLRLSCAASGFTFSTSWMGWFRQAPGKERELVAARNSGGNTNYADSVKGRFTISADNAKNTVYLQMNSLKPEDTAVYYCAADVWYGSTWRNWGQGTQVTVSS	0.008
TIGIT-29-22 VHH-V5-His (VHH, not shown: V5-His tag) VHH: EVQLVESGGGLVQAGGSLRLSCAASGSILSSYTMGWFRQAPGKEREFVSTISRSSTRTYYADSVKGRFTISADNAKNTVYLQMNSLKPEDTAVYYCAARLWGTWTAGDYDYWGQGTQVTVSS	0.003

[1] TIGIT-30-15 VHH-V5-His (VHH, not shown: V5-His tag) VHH: EVQLVESGGGLVQAGGSLRLSCAASGFTFSGNWMGWFRQAPGKEREWVSGISSGGGRTYYADSVKGRFTISADNAKNTVYLQMNSLKPEDTAVYYCAADVWYGSTWRNWGQGTQVTVSS
[2] TIGIT-30-20 VHH-V5-His (VHH, not shown: V5-His tag) VHH: EVQLVESGGGLVQAGGSLRLSCAASGPTFSIYDMGWFRQAPGKEREFVAVINWSRGSTFYADSVKGRFTISADNAKNTVYLQMNSLKPEDTAVYYCAAGVWSSLRHTAANWGQGTQVTVSS
Quick check, higher koff between 1 and 2 ? Indicate your choice by writing its label.
1
(1: 0.004 s⁻¹, 2: 0.002 s⁻¹)
